tgt: gH/gL/UL128/UL130/UL131A pentamer complex (PC) of HCMV strain TB40/E virus (human cytomegalovirus strain TB40/E)
method.summary: cell-based or functional assay
reported.endpoint: IC50, neutralization of TB40/E infection of ARPE-19
Include the unit after the number when you answer.

binder	result
13B5 (antibody, V domains shown, also called NAb 13B5; 1365) VH: QVTLKESGPGILKPSQTLSLTCSFSGFSLTTSGLGVGWIRQPSGKGLEWLAHIWWDDDKYFNPSLRNQLTISKDTSRNQVFLEITSVTTADTATYYCVRSLYDYDEGYYFDSWGQGTTLTVSS VL: EIVMIQSPATLSVNPGDRVSLSCRASQSISDYLHWYQQKSHESPRLLIKYASQSISGIPSRFSGSGSGSDFTLSINSVEPEDVGVYYCQNGHTFPPTFGGGTKLEIK	15 ng/mL

What value of measured IC50, neutralization of TB40/E infection of ARPE-19 is listed for 1B2 (antibody, V domains shown, also called NAb 1B2) VH: EVQLVESGGVLVKPGGSLKLSCAASGFTFSDYYMYWVRQTPEKRLEWVATISDDGNYTNYPDSVKGRFTISRDNAKNNLYLQMSSLKSEDTAMYYCARGWLLPVFAYWGQGTLVTVSA VL: DIVLTQSPATLSVTPGDSVSLSCRASQSIGNNLHWYQQKSHESPRLLIKYTSQSISGIPSRFSGSGSGTDFTLNINSVETEDFGVYFCQQSNRWPWTFGGGTKLEIK ?
0.6 ng/mL
